These entries and their values trace back to patent US20260258115A1.

target under test: RSV prefusion F (preF), subtype B (respiratory syncytial virus, subtype B)
protocol: BLI, IgG
endpoint: Kd (nM)

{"columns": ["binder", "endpoint", "measurement unit", "observed"],
 "data": [
  ["ADI-14595 (antibody, V domains shown) VH: EVQLLESGGGLVQPGGSLRLSCAASGFTFSIYSMNWVRQAPGKGLEWISYISRSGSTIFYADSVKGRFTISRDDAKNSLFLQMTSLRDADTAVYYCARVDCSNNKCYDYWGQGTLVTVSS VL: DIQLTQSPATLSLSPGERATLSCRASQSISSFLAWYQQKPGQAPRLLIYDASKRATGTPARFSGGGSGRDFTLTISSLEPEDFAVYYCQQRSSWPLYTFGQGTKVEIK", "Kd", "nM", 16],
  ["ADI-20992 (antibody, V domains shown) VH: EVQLVESGGGLVQPGGSLRLSCVVSGFTFKSYWMTWVRQAPGKGLEWVANIKEDGSEKYYVDSVKGRFTISRDNARNSLFLQMNSLRADDTAVYYCARNLEVSNEFYVVTDNYYLMDVWGQGTTVTVSS VL: DIQLTQSPSSLSASVGDRVTITCRASQSISFFLNWYRQKPGKAPKLLIYAASTLQSGVPSRFSGSGSGTDFTLTISSLQPEDFASYYCQQSYSTPHTFGQGTKVEIK", "Kd", "nM", 1.22],
  ["ADI-21043 (antibody, V domains shown) VH: QVQLVQSGAEVKKPGASVKVSCKASGYTFTSYGITWVRQAPGQGLEWMGWISTYNGKTNYAQKFKGRVTMTTDTSTSTAYVELTSLRSDDTAVYYCAREFPTRIVDSFYMDVWGKGTTVTVSS VL: SYELTQPPSVSVAPGQTARITCGGSNIGSETVHWYQQKPGQAPVLVVYGDSDRPSGIPERFSGSNSGNTATLTISRVEAGDEADYYCQVWDSRSDDFHVFGSGTKLTVL", "Kd", "nM", 0.154],
  ["ADI-21060 (antibody, V domains shown) VH: EVQLVESGGGLVKPGGSLRLSCEASGFRLSDYYMTWIRQAPGKGLECISYISGGSTFKSYSDSVKGRFTISRDNTNLYLQMNSLRVEDTAVYYCARAPYLIYYMDVWGKGTTVTVSS VL: QPVLTQPPSVSGAPGQRVSISCTGSNSNIGAGYDVHWYQQLPGTPPKLLIYDNNNRPSGVPDRFSGSKSGTSASLAITGLQAEDEADYYCQSYDNRLSGSQVLFGGGTKVTVL", "Kd", "nM", 0.349],
  ["ADI-21002 (antibody, V domains shown) VH: QVQLVESGPGLVKPSGTLSLTCAVSGDSINSGNWWNWVRQAPGKGLEWIGEIYHRGTSNYNPSLKSRVTISVDQSKNQFSLKVTSLTAADTAIYYCARARGYSSGPSYYYYLDVWGKGTLVTVSS VL: EIVMTQSPSSLSASVGDRVTISCRASQSISTYLNWYQQKPGKAPKVIIYGASNLQSGVPSRFSGSGSGTDFTLTISSLQPEDFATYYCQKSFNPCVFGQGTKVDIK", "Kd", "nM", 8.6]
]}
